- assay.explanation: amyloid nucleation score (Sup35N fusion, yeast selection) (log enrichment); library NNK2; higher = more nucleation; inactive = no reads after selection;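 further: zero at mode of non-aggregating sequences after 7 days selection at 30°C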
Catalogue of substances with associated amyloid nucleation score
# answer = number (no unit)

Which amyloid nucleation score reading was recorded for the substance WVYLRVFAHKKRAALSWAYS ? -0.077

Now give it for DDDRPDEAYEYDVSGF too. -1.03

Request: DDSFML -0.134

Ok, now NRFQYGCNSGSMTVWGALWF 0.706

Same read-out for NSPMSKSLNRT ? 0.347

Queued: SYPACRNRAVVRARGVVNLW 2.7

What do you get for LKYDSKPSRVWMEICLYDAR ? 7.19

Now give it for HWYVVDLVRVNYRALNSKWW too. 0.194

// query: RVYMRISFSLSLLIAMSNLI -0.315

Then TFLLAFFIFFLNG ? -0.306

Could you do the same for WFYKVSSA , please? -0.481

Follow-up item: KSTVIMSDTFLR -0.271

Item: GNTGCGVRACSGVCGKMDLV 0.8

Ok, now WDYVQVCPNLLVRTLLFMFA -0.81

Repeat for the following substance: VAPTLYLVCRIIRPNPNSYY -0.228

---

- assay.explanation: amyloid nucleation score (Sup35N fusion, yeast selection) (log enrichment); library NNK1; higher = more nucleation; inactive = no reads after selection
Below: a set of entries, each annotated with reported amyloid nucleation score.
In your answer, state the number alone without any accompanying words.

Would you kindly share the measured amyloid nucleation score for ILDVKAPR ? 0.446

Another substance: CGSRSCSLFDRKWIRYFLGC 0.759

Same for PIYVAGLGIVI -0.308

Now the substance EVGMHNMACADSSVCMRSVL 0.472

---

- assay.explanation: amyloid nucleation score (Sup35N fusion, yeast selection) (log enrichment); library NNK2; higher = more nucleation; inactive = no reads after selection
The threshold is inclusive: amyloid nucleation score of exactly 0.4 counts as Satisfied; values below receive Not satisfied.

Example entries and their recorded answers appear below.
KFIFTSLAN	Not satisfied
CMAIDLPVHYS	Not satisfied
YHCRSEVTCWLEYDG	Satisfied
FVYWFKYT	Not satisfied
VGSVICMFMCWFA	Satisfied

Decide: amyloid nucleation score of YNSPSDWDTIISSIILF >= 0.4? Not satisfied

Next substance: GIKYRSQCGCASDVCIKCRS Not satisfied

Item: TPSFLLMICRNMVLGCG Satisfied

Note, next up: ICFTCQYFNKYPGRS Satisfied

Subsequent entry: MVLIYRLCQSLRLRHGVGVK Satisfied

Lookup FPAQPAVRSRSACWYVLQVR Not satisfied

---

- assay.explanation: amyloid nucleation score (Sup35N fusion, yeast selection) (log enrichment); library NNK2; higher = more nucleation; inactive = no reads after selection
Label yes (1) when amyloid nucleation score is at or above 0.2; anything below gets no (0).

The examples below pair each entry with its known result.
NSDCEVPFTWFVMLIGAPGG	no (0)
PDYYYMTTLLYCRSSKSLKR	no (0)
FSMRSKQGRTFTRLQDGSGL	yes (1)
RSCFPMIIALVRFDVFGDCY	no (0)
VFTFVKERQSTWVVSFPQFL	yes (1)
ALLVRVIRYRGSRNESRCPA	yes (1)
HKGWIKLLLPAHQLITLPPN	no (0)
ISSDLWVHSFNTILSENGVC	no (0)

# check: amyloid nucleation score of LWIIPQELGLCLMCGVVCCV is greater than or equal to 0.2 no (0)

And VVNCCGWMVPVGPSHW ? yes (1)

What do you get for YFFSISWTCYFR ? yes (1)

Input NDVGSLWVIADVGIFYVQDK no (0)

FYI, the data here is from the supplement of paper PMC12042874.
